Form field: pIC50 (one value per entry).
target: CDK2 (human); test: Cell-Based Assay; conditions: a549
Lab note: report pIC50 as minus log10 of the concentration in molar units, number only.

Reference set (2 entries):
Cc1[nH]c(C#N)c(C)c1-c1ccnc(Nc2ccc(C(F)(F)F)cc2)n1; 5.44
Cc1ccc(Nc2nccc(-c3c(C)[nH]c(C#N)c3C)n2)cc1F; 5.83

Observed pIC50 on CDK2 (human) for Cc1c[nH]c(C)c1-c1ccnc(Nc2ccc(I)c(Cl)c2)n1 , please.
5.36

###

Form field: pIC50 (one value per entry).
molecular target: CDK2 (human) (UniProt P24941); experiment: Cell-Based Assay; conditions: a549
Lab note: report pIC50 as minus log10 of the concentration in molar units, number only.

I would be grateful if you could share the reported pIC50 for Cc1[nH]c(CN(C)C)c(C)c1-c1ccnc(Nc2ccc(F)cc2)n1 .
5.56
